Assignment: determine reported Percent Effect for the given compounds.
Tested on: Wolbachia pipientis
assay: Anti-Wolbachia Cell-Based Screen
Format: functional
Parameters: scale not given: in the data most compounds retested in dose-response had high values
study_conditions: 5 µM
In all, about 48,000 compounds went through this assay and about 13,000 (27%) showed an effect of 50% or more. Some of the results follow.
Answers are plain numbers, in %.

Recorded Percent Effect, per entry:
CCc1ocnc1C(=O)N1CCC2(CCCN(CC(C)(C)C)C2=O)C1 (stereo unspecified) : 100.3
CN(C)C1CCCN(Cc2cccc(Cn3cccn3)c2)CC1 (stereo unspecified) : -12.17
O=C(c1c[nH]nc1-c1cccc(F)c1)N1CCNC(c2ccccc2)C1 (stereo unspecified) : 39.59
CCn1c(C)nnc1CN(C)C1CCN(CCOc2ccccc2)C1 (stereo unspecified) : 149.5
CCc1noc(C)c1C(=O)N1CCC2(CCCN(CC(C)(C)C)C2=O)C1 (stereo unspecified) : 101.6

For each of the compounds below, state Percent Effect.
1. Cc1cc(C(=O)N2CCCC3(CN(C)C(=O)O3)C2)c2ccc(F)cc2n1 (stereo unspecified)
2. Cc1nc(CN2C(=O)CCC23CCN(c2ncccc2C)CC3)cs1
3. COCCNC(=O)c1cc(COc2cncc(Cl)c2)on1
4. CN(CC(=O)N1CC(C)(C)[C@](O)(C2CC2)C1)Cc1ccncc1
5. CCOC1CCN(CC(=O)Nc2oc(C)c3c(C)n[nH]c(=O)c23)CC1
6. CN1CCCc2c1nc1c(c2N)CCC1
7. O=C(Cn1ccc2ccccc21)N1CCC(Oc2cnccn2)CC1
8. Cc1cnn(CCNCC(O)COc2c(C)ccc(C)c2C)c1 (stereo unspecified)

OUTPUT:
1. -8.064
2. 91.84
3. 6.247
4. -13.6
5. -5.173
6. 99.68
7. 0.2299
8. -3.427

For each of the compounds below, state Percent Effect.
1. CC(C)CN1C(=O)CO[C@@H]2CN(C(=O)C3CCOCC3)C[C@H]21
2. CC(=O)c1cc(CN2C[C@H]3CC[C@@H]2CN(Cc2c(C)noc2C)C3)cs1
3. Cc1cc(C(=O)N2C[C@H](c3ccccc3)[C@@H](N)C2)c2ccc(F)cc2n1
4. CC(CCN(C)C)NC(=O)N1CCSC(C)(C)C1 (stereo unspecified)
5. Cc1occc1C(=O)N1CCC2(CCCN(CC3CCC3)C2=O)C1 (stereo unspecified)

OUTPUT:
[-22.5, 0.576, 109.4, -16.4, -0.1295]

For each of the compounds below, state Percent Effect.
1. CCn1c(C)nnc1CN(C)C1CCN(CCCSC)C1 (stereo unspecified)
2. Cc1occc1C(=O)N1CCC2(CCCN(CC3CC3)C2=O)C1 (stereo unspecified)

OUTPUT:
1. 119.6
2. -3.086

----------
Assignment: determine reported Percent Effect for the given molecules.
Tested on: Wolbachia pipientis
assay: Anti-Wolbachia Cell-Based Screen
Assay type: functional
Set-up: scale not given: in the data most compounds retested in dose-response had high values
study_conditions: 5 µM
The whole screen tested about 48,000 compounds, of which about 13,000 (27%) showed an effect of 50% or more. This is one part of the list.
One number for each entry, in %.

CCCc1nc(C(=O)NCCCn2nnc3ccccc32)cs1 : 3.085

For each of the molecules below, state Percent Effect.
1. CC(=O)c1cn(CC(=O)N2CCCC(O)(CO)C2)c2ccccc12 (stereo unspecified)
2. CCOC(C)c1noc(CN2CCN(c3ccncc3)CC2)n1 (stereo unspecified)
3. CCCc1nc(C(=O)N2CCN(S(=O)(=O)CC)CC2)cs1
4. COc1cccc(COCC(=O)N2CCCC(N3CCCC3)CC2)c1 (stereo unspecified)

OUTPUT:
-9.342
-6.635
13.9
-3.543

----------
Tested on: Wolbachia pipientis
assay: Anti-Wolbachia Cell-Based Screen
Format: functional
Design: scale not given: in the data most compounds retested in dose-response had high values
study_conditions: 5 µM
Among all 48,000 compounds or so, about 13,000 (27%) showed an effect of 50% or more. Some of the results follow.
readout_name: Percent Effect

For each of the compounds below, state Percent Effect.
1. CN(C)Cc1nnc(C2CCCN(c3ncccc3F)C2)n1C (configuration not stated)
2. CN(CCN1CCCCCC1)C(=O)c1c(O)cccc1O
3. COc1ccc(OC)c(C2CCN(C(=O)C3CCN(C(C)C)CC3)C2)c1 (configuration not stated)
4. COC(=O)c1ccc(N2CCN(C(=O)C3CC3)C(C)C2)cc1 (configuration not stated)
5. CN1CCN(C2COC3(CCN(CC4CC4)CC3)C2)CC1.O=C(O)C(F)(F)F.O=C(O)C(F)(F)F.O=C(O)C(F)(F)F (configuration not stated)
6. CN1CCCC(C(=O)N2CCC(Oc3ncccn3)CC2)C1 (configuration not stated)

OUTPUT:
1: -23.88%; 2: -5.64%; 3: -6.334%; 4: -9.327%; 5: -10.32%; 6: 16.76%

For each of the compounds below, state Percent Effect.
1. COC(=O)c1ccc(N2CCN(C(=O)CC(F)(F)F)C(C)C2)cc1 (configuration not stated)
2. CS(=O)(=O)CCn1ccc(NCc2ccc(C#N)cc2)n1
3. CNC(=O)NC(=O)CN1CCN(c2ccc(C(=O)OC)cc2)CC1C (configuration not stated)
4. COC(=O)c1ccc(N2CCN(CCC#N)C(C)C2)cc1 (configuration not stated)

OUTPUT:
1. -6.136%
2. 4.656%
3. 123.3%
4. 9.254%

For each of the compounds below, state Percent Effect.
1. CC(C)Nc1cc(-c2c[nH]nc2C2CCN(C(=O)C3CC3)C2)ccn1 (configuration not stated)
2. COCC(=O)N1CCN(c2ccc(C(=O)OC)cc2)CC1C (configuration not stated)

OUTPUT:
1. 259.2%
2. -2.487%

For each of the compounds below, state Percent Effect.
1. CNC(=O)NC(=O)CCN1CCN(c2ccc(C(=O)OC)cc2)CC1C (configuration not stated)
2. c1ccc(SCCN2CCCC(Cn3ccnc3)C2)cc1 (configuration not stated)
3. Cc1oncc1C(=O)N1CC[C@H]2[C@H](CO[C@@H]2CNS(C)(=O)=O)C1
4. COC(=O)c1ccc(N2CCN(CCS(C)(=O)=O)C(C)C2)cc1 (configuration not stated)
5. CC(C)c1nc(-c2ccc(=O)[nH]n2)n(-c2ccc3c(c2)OCO3)n1

OUTPUT:
1. 121.7%
2. -2.811%
3. -5.011%
4. 130.9%
5. -26.15%

----------
Tested on: Wolbachia pipientis
assay: Anti-Wolbachia Cell-Based Screen
Assay type: functional
Parameters: scale not given: in the data most compounds retested in dose-response had high values
study_conditions: 5 µM
In all, about 48,000 compounds went through this assay and about 13,000 (27%) showed an effect of 50% or more. This is one part of the list.
Assignment: determine reported Percent Effect for the given molecules.
Answers are plain numbers, in %.

Recorded Percent Effect, per entry:
CC1c2cc(F)ccc2CCN1CCS(=O)(=O)C(C)C (configuration not stated) : 14
COc1ccc(C)cc1C(C(=O)O)N1CCN(Cc2ccccn2)CC1 (configuration not stated) : -8.065
CCc1nc(CN2CCCN(C(=O)COCC3CC3)CC2)cs1 : -1.235
Cc1ccc(C)c(-c2[nH]c3ccccc3c2C(=O)O)c1 : 107.7
O=C(NCCn1ccnc1)c1csc(Br)c1 : 7.312

For each of the molecules below, state Percent Effect.
1. NC(=O)c1nc(CN2CCOC(C(F)(F)F)C2)no1 (configuration not stated)
2. CC(C)CN1CCN(C(=O)c2cc(=O)c3ccccc3[nH]2)CC1
3. Cn1cnc(CN2Cc3nccn3CC2c2ccccc2)c1 (configuration not stated)
4. CC(C)NC(=O)c1nc(Cn2c(C(F)(F)F)nc3ccccc32)no1
5. COc1ccc(C)cc1-c1[nH]c2ccccc2c1C(=O)O
6. Cc1ccc(C)c(C(=O)CN2C(=O)c3ccccc3CS2(=O)=O)c1
7. Cc1ccc(-c2[nH]c3ccccc3c2C(=O)O)c(C)c1

OUTPUT:
1. -3.309
2. -0.8051
3. 137.8
4. 97.59
5. 86.15
6. -17.22
7. 112.6

----------
System: Wolbachia pipientis
assay: Anti-Wolbachia Cell-Based Screen
Format: functional
Parameters: scale not given: in the data most compounds retested in dose-response had high values
study_conditions: 5 µM
The campaign covered roughly 48,000 compounds. About 13,000 (27%) showed an effect of 50% or more. This is one part of the list.
readout_name: Percent Effect (%)
Answers are plain numbers, in %.

Recorded Percent Effect, per entry:
CC(C)=CCn1ncc(N2CCOCC2)cc1=O : 1.937
COc1cc(CNCc2c(C)nn(CC(C)C)c2N(C)C)ccn1 : 90.35
CC(C)c1nn(C)c(N(C)C)c1CNCc1ccnn1C : 10.31
CC(C)=CCn1ncc(N2CCCCC2)cc1=O : 8.054
CCc1cc(CNC(=O)N(C2CC2)C(C)c2ccco2)[nH]n1 (stereo not given) : -14.67

For each of the compounds below, state Percent Effect.
1. COc1cc(CNCc2c(C(C)C)nn(C)c2N(C)C)ccn1
2. O=c1cc(N2CCOCC2)cnn1CCc1ccc(F)cc1
3. COc1ccc(Br)c(C(=O)N2CCC(c3n[nH]c(C4CC4)n3)CC2)c1
4. Cc1nn(CC(C)C)c(N(C)C)c1CNCc1cccnc1N(C)C

OUTPUT:
1: -8.861; 2: -9.338; 3: 9.985; 4: -5.662

For each of the compounds below, state Percent Effect.
1. CCc1cc(CNC(=O)NCC(c2ccco2)N2CCCC2)[nH]n1 (stereo not given)
2. O=c1cc(N2CCCCC2)cnn1C[C@H](O)CO
3. CCCC(C)NC(=O)c1ccc(-c2ccco2)[nH]c1=O (stereo not given)
4. CC(C)=CCC/C(C)=C/CN1CCN(C)C2(CCNC(=O)CC2)C1 (stereo not given)
5. Cc1nn(CC(C)C)c(N(C)C)c1CNCc1cccc2c1OCO2
6. Cc1nn(CC(C)C)c(N(C)C)c1CNCc1cc2ccccc2[nH]1
7. CC(=O)NCCCNCc1c(C)nn(CC(C)C)c1N(C)C

OUTPUT:
1: -1.193; 2: 78.69; 3: 12.91; 4: 14.94; 5: 0.06204; 6: 5.6; 7: -6.238

For each of the compounds below, state Percent Effect.
1. O=c1cc(N2CCNCC2)cnn1CCc1ccc(F)cc1
2. CC(NS(C)(=O)=O)C(=O)N(C)Cc1csc(-c2ccccc2)n1 (stereo not given)
3. Cc1nn(CC(C)C)c(N(C)C)c1CNCc1ccccc1CO
4. CCn1ccnc1CN1CCN(C(C)C(=O)N2CCC(C)CC2)CC1 (stereo not given)
5. O=C(CCCNCc1ccc(Cl)c2cccnc12)NC1CC1
6. C[C@H](NS(C)(=O)=O)C(=O)NCc1cc(-c2ccco2)n[nH]1
7. CC(C)[C@H](NS(C)(=O)=O)C(=O)NCc1cc(-c2ccccc2)n[nH]1
8. Cc1nn(CC(C)C)c(N(C)C)c1CNCc1ccnn1C

OUTPUT:
-7.094
-10.17
116.8
15.17
-3.748
75.56
101.1
113.6

INPUT: Quick one: Percent Effect of CC(C)CC(CCO)CNC(=O)N1CCCC1(C)C (stereo not given) ?
OUTPUT: -11.2
